// provenance: patent US8927723B2

# METHOD SUMMARY: solubility of compounds having formula (VII) in ethyl acetate
# EXPERIMENTAL CONDITIONS: organic solvent or mixture

COMPOUND | MEASUREMENT UNIT | solubility
CCOC(=O)c1cn(-c2nc(N)c(F)cc2F)c2cc(N3CC(OC(=O)C(C)C)C3)c(F)cc2c1=O [CH(CH3)2] | µg/mL | 6400
